Data origin: PubChem BioAssay (NCI)

- Test system: OVCAR-8 ovarian
- Protocol Summary: NCI-60 one-dose screen, 48 h (100 = growth as untreated, 0 = no growth, -100 = all killed)
- Condition Info: 10 µM unless noted
Compounds without any hit were thinned out: in the full panel of roughly 83,000, 20% have a hit.
Measured Parameter: growth (%)

> print(dat)
                                   compound  measured.parameter  test.result
1  COc1ccc(NC(=O)Cn2c(O)c(N=Nc3ccc(S(N)(=O)=O)cc3)c3ccccc32)cc1              growth         24.5
2  COc1ccc(C2=NN(C(C)=O)C(c3ccc(OCc4ccc(Cl)cc4)c(OC)c3)C2)cc1OC (centres undefined)              growth         43.5
3  O=C(/C=C/c1cccc(OCc2ccccc2)c1)c1nc2ccccc2[nH]1              growth           58
4  CN(C)c1nc(NCCNS(=O)(=O)c2ccc(C3=Nc4c(N)nc(N)nc4NC(c4ccc(C(F)(F)F)cc4)C3)cc2)nc(Nc2ccc(F)cc2)n1 (centres undefined)              growth         32.8

###

- System: COLO 205 colon
- Protocol Summary: NCI-60 one-dose screen, 48 h (100 = growth as untreated, 0 = no growth, -100 = all killed)
- Condition Info: 10 µM unless noted
This is part of a sample that, as a whole, favours compounds with a hit. Of some 83,000 tested, about 20% had one in any assay. Activity calls are given as the source filed them. The calls were made as follows: active = growth percent below 10; inactive = the rest.
List of growth values.
Measured Parameter: growth

> print(dat)
                                    compound       test.result
 1  Cc1ccc(S(=O)(=O)c2nc(S(=O)(=O)c3ccc(C)cc3)c(Cl)s2)cc1   -78.6% (active)
 2  COc1ccc(C(=O)/C=C/c2ccc(OC)c(OCc3ccccc3)c2)cc1OC  20.1% (inactive)
 3  COc1ccc(Cc2nn(CC(=O)N/N=C/c3ccc(F)cc3)c(=O)c3c(C)noc23)cc1  59.3% (inactive)
 4  CC(C)c1ccc2c(N)c(C(=O)Nc3cccc(C(F)(F)F)c3)sc2n1  48.2% (inactive)
 5  CCCCSc1nc(Nc2ccc(C(C)=O)cc2)c(C#N)c(-c2ccc(OC)cc2)n1  82.3% (inactive)
 6  C(=C\c1cc(/C=C/c2ccccc2)c2ccccc2n1)/c1ccccc1   118% (inactive)
 7  COc1ccc(/C=C/c2nc3ccccc3c(=O)n2CC(=O)Nc2ccc(OC)cc2)cc1  87.8% (inactive)
 8  COc1ccc(C(=O)/C=C/c2cc3c(cc2Br)OCO3)cc1S(N)(=O)=O     -69% (active)
 9  COc1ccc(-c2nc3cc(C)ccc3n2CC(=O)N=Nc2c(O)[nH]c3ccc(OC)cc23)cc1   -68.2% (active)
10  O=C(c1ccccc1)C(c1c[nH]c2ccccc12)c1c[nH]c2ccccc12  58.5% (inactive)
11  CCC(C)(C)c1ccc(OCCCCN2CCN(c3ccncc3)CC2)cc1   -81.9% (active)
12  Clc1cccc(-c2ccc(OCCCN3CCN(c4ccncc4)CC3)cc2)c1   -86.1% (active)
13  C=C1CC[C@@H]2[C@]3(C)COC(c4ccccc4)O[C@@H]3CC[C@@]2(C)[C@@H]1C/C=C1/C(=O)OCC1OC(C)=O (stereo partly specified)   -76.4% (active)
14  COc1c(F)ccc(C(=O)Nc2ccc3nc(NC(=O)C4CCCN(S(=O)(=O)c5ccc(Br)s5)C4)sc3c2)c1F (stereo unspecified)   101% (inactive)
15  CCCCCCCCOc1cccc(S(=O)(=O)Nc2ccc(C)cc2C(=O)O)c1   112% (inactive)
16  O=C(COc1ccc(NC(=O)Nc2ccccc2)cc1)N=Nc1c(O)[nH]c2ccc([N+](=O)[O-])cc12   -29.9% (active)
17  Cc1cnc(C(=O)NNc2nc3cc(F)ccc3n3c(C(=O)N4CC5CC(C4)N5)ccc23)cn1  10.5% (inactive)
18  C=C1CC[C@@H]2[C@]3(C)COC(c4ccco4)O[C@@H]3CC[C@@]2(C)[C@@H]1C/C=C1/C(=O)OCC1OC(C)=O (stereo partly specified)  48.6% (inactive)
19  COc1c(F)ccc(C(=O)Nc2ccc3nc(NC(=O)C4CCCN(S(=O)(=O)c5ccc(C#N)cc5)C4)sc3c2)c1F (stereo unspecified)  96.9% (inactive)
20  CN(C)c1nc(NCCNS(=O)(=O)c2ccc(C3=Nc4c(N)nc(N)nc4NC(c4ccccc4)C3)cc2)nc(Nc2ccc(F)cc2)n1 (stereo unspecified)    44% (inactive)
21  COc1ccc(C(=O)/C=C/c2cccc(Br)c2)cc1S(N)(=O)=O   -92.6% (active)
22  C#C[C@]1(O)CC[C@H]2[C@@H]3CC=C4c5sc(-c6ccc(O)c(O)c6)nc5CC[C@]4(C)[C@H]3CC[C@@]21C   -80.2% (active)
23  COc1ccc(-c2nc3ccc(C(=O)NN4C(=O)c5ccc([N+](=O)[O-])cc5C4=O)cc3[nH]2)cc1   105% (inactive)
24  CN(C)CCOc1ccc(C(=O)C2[C@H](c3ccc(Cl)cc3)[C@@H](c3ccccc3)NC23C(=O)Nc2ccc(Br)cc23)cc1 (stereo partly specified)     -69% (active)
25  C#CCOc1cc(N(CC)CC)ccc1C(C(=O)NC(C)(C)C)N(C(=O)C1CCc2cc(F)ccc2O1)c1ccccc1Br (stereo unspecified)  46.9% (inactive)
26  O=C(N=Nc1c(O)[nH]c2ccc(Cl)cc12)c1ccc2nc(-c3ccccc3)[nH]c2c1    62% (inactive)
27  COc1ccc2[nH]cc(-c3nc(N)nnc3-c3cn(C)c4ncccc34)c2c1  44.5% (inactive)
28  NS(=O)(=O)c1ccc(-n2cc(-c3cccc(NC(=O)c4cc(N5CCOCC5)cc(C(F)(F)F)c4)c3)nn2)cc1  76.9% (inactive)
29  CCCSc1nc(NCCc2c[nH]c3ccccc23)c(C#N)c(-c2ccccc2)n1  62.8% (inactive)
30  COc1ccc(C(=O)/C=C/c2ccccc2Br)cc1S(N)(=O)=O   -72.8% (active)
31  C/C(=N\N=C\c1cc([N+](=O)[O-])ccc1Cl)c1ccc2c(c1)Nc1ccccc1S2  61.3% (inactive)
32  O=C(Nc1cccc(-n2cnc3cc(-c4ccc(O)cc4)ccc32)c1)C1CC1  34.2% (inactive)
33  CC1(c2cc3cc(Cl)ccc3oc2=O)NC(=O)c2c(/C=C/C(=O)OC3CC4CCC3(C)C4(C)C)cccc2N1 (stereo unspecified)  48.8% (inactive)
34  CC(=O)/C=C/c1cccc2c1C(=O)NC(C)(c1cc3cc(Br)ccc3oc1=O)N2 (stereo unspecified)  79.6% (inactive)
35  COc1ccc(/C=N/NC(=O)Cn2nc(Cc3ccc(OC)cc3)c3onc(C)c3c2=O)cc1  55.7% (inactive)
36  COc1c(F)ccc(C(=O)Nc2ccc3nc(NC(=O)C4CCCN(S(=O)(=O)c5cccc(Cl)c5)C4)sc3c2)c1F (stereo unspecified)  86.2% (inactive)

###

- System: MDA-MB-435 melanoma
- Protocol Summary: NCI-60 one-dose screen, 48 h (100 = growth as untreated, 0 = no growth, -100 = all killed)
- Condition Info: 10 µM unless noted
- Protocol: Growth inhibition of the MDA-MB-435 human Melanoma tumor cell line is measured as a screen for anti-cancer activity. Cells are grown in 96 well plates and exposed to the test compound for 48 hours. Compounds are tested at a single concentration, which is 10^-5 M for most compounds. The reported endpoint is percent growth (GI% or GIPRCNT), where numbers from 0 - 100% represent growth inhibition, and numbers from -100% - 0 represent cell death. […]
This is part of a sample that, as a whole, favours compounds with a hit. Of some 83,000 tested, about 20% had one in any assay.
Here, each record is paired with measured growth data.
Measured Parameter: growth (%)

> print(dat)
                                   molecule         study.system  measured.parameter  test.result
1  O=C(/C=C/c1cccc(OCc2ccccc2)c1)c1nc2ccccc2[nH]1  MDA-MB-435 melanoma              growth           72
2  Cn1cc(-c2cc3nc(-c4c[nH]c5ccc(Cl)cc45)cc(N)n3n2)c2ccccc21  MDA-MB-435 melanoma              growth        -84.7
3  O=C1/C(=C/C2=Cc3ccccc3OC2)SC(=S)N1c1ccccc1F  MDA-MB-435 melanoma              growth          108
4  COC(OC)C1=C(C)OC(N)=C(C#N)C12C(=O)Nc1ccccc12 (centres undefined)  MDA-MB-435 melanoma              growth         94.8
5  C[C@H](Nc1nc(NCCc2ccccc2)nc2ccccc12)c1ccccc1  MDA-MB-435 melanoma              growth        -88.5
6  COc1ccc(C(=O)/C=C/c2ccc(Oc3nc(Nc4ccc(F)cc4)nc(N(C)C)n3)c(OC)c2)cc1  MDA-MB-435 melanoma              growth         51.4
7  O=C(NNc1nc2cc(F)ccc2n2c(C(=O)N3CCN(C4CC4)CC3)ccc12)c1ncccn1  MDA-MB-435 melanoma              growth         41.2
8  COc1ccc(NC(=O)[C@H](C)N)cc1C(=O)Nc1cccc(C2CC(=O)c3c(cc(OC)c(OC)c3OC)O2)c1 (some centres undefined)  MDA-MB-435 melanoma              growth         93.2
9  Nc1n[nH]c2cccc(C#Cc3cccc(NC(=O)c4cccc(Cl)c4)c3)c12  MDA-MB-435 melanoma              growth         22.7
